The reported numbers originate from patent US20220087960A1.

Test: Maximum tolerated dose / LD50 study, single oral gavage, 14-day observational period (Example 7)
Conditions: both, Sprague Dawley, rat, in vivo
measure.name: LD50 at 14 day

Data point: CC[N+](CC)(CC(=O)Nc1c(C)cccc1C)Cc1ccccc1.O=C([O-])c1ccccc1 [DB] ; LD50 at 14 day = 784 mg/kg

---

Assay: Maximum tolerated dose / LD50 study, single oral gavage, 14-day observational period (Example 7)
Settings: both, Sprague Dawley, rat, in vivo
measure.name: MTD at 14 day (mg/kg)
Answer format: numeric, mg/kg implied, no suffix.

Just so you know, measured MTD at 14 day for `CC[N+](CC)(CC(=O)Nc1c(C)cccc1C)Cc1ccccc1.O=C([O-])c1ccccc1` came out at 360
